# targetSystem: Rap guanine nucleotide exchange factor 3 (Homo sapiens) (UniProt O95398)
# Sequence (O95398 whole entry, looked up): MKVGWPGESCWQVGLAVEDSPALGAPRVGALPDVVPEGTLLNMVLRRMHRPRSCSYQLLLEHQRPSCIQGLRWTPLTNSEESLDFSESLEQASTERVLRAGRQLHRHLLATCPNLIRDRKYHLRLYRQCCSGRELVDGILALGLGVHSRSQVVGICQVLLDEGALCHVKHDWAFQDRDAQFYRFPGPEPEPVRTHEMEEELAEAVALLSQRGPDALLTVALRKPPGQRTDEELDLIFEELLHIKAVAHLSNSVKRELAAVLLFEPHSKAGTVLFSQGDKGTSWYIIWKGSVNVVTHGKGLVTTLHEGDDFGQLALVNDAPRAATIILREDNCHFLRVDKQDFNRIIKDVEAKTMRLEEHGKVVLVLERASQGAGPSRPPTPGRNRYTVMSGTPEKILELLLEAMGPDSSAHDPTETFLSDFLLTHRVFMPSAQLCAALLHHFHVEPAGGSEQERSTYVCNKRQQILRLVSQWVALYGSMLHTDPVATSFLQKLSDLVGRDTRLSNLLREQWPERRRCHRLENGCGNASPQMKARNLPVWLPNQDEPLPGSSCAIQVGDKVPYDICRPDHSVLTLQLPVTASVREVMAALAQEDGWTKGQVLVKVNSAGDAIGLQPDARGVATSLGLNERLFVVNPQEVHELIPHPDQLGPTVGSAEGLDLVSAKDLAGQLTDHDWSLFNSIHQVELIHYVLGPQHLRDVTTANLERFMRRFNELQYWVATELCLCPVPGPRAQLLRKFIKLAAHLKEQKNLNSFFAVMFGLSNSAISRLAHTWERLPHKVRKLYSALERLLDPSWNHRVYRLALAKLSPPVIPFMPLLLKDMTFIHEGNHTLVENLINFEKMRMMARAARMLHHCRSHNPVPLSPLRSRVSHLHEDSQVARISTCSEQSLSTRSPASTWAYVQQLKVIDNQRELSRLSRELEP
# protocol: Confirmatory qHTS for antagonist of cAMP-regulated guanine nucleotide exchange factor 3 (EPAC1) (AID 1645880); also: nearly all actives have a fitted effect of over 55% in size; also: potency is read from the fitted curve at half-maximal effect
# measurementConditions: EPAC1 Rap1B-BODIPY-GDP exchange, fluorescence
Inconclusive results are not listed. Activity calls are given as the source filed them. Calls follow the shape of the dose curve; as a rule, active = well fitted inhibition curve with a large enough effect; inconclusive = small, poorly fitted or top-dose-only effect; inactive = no such curve, though single readings can be large or run the other way.
reportedMetric: Potency

# example entries with known answers
Recorded Potency (compound Nc1cccc2c(O)cc(S(=O)(=O)O)cc12 ): 13.5 µM (active)

Recorded Potency (compound CCCN(C(=O)COC(=O)COc1c(C)cccc1C)c1c(N)n(Cc2ccccc2)c(=O)[nH]c1=O ): inactive

Recorded Potency (compound Cc1ccc(S(=O)(=O)Nc2ccc3cc([N+](=O)[O-])ccc3c2[N+](=O)[O-])cc1 ): 21.3 µM (active)

Recorded Potency (compound COc1ccc(/C(N)=N/OC(=O)c2ccc(C)c([N+](=O)[O-])c2)cc1 ): inactive

Recorded Potency (compound CCc1cc2c(=O)c(-c3nc4ccccc4n3C)coc2c(CN2CCCCC2C)c1O (stereo unspecified) ): inactive

Recorded Potency (compound CCOc1nc(-c2ccccc2Cl)nc2ccccc12 ): inactive

Recorded Potency (compound CCCNC(=O)Cn1c(=O)/c(=C/c2ccc(-c3ccc([N+](=O)[O-])cc3)o2)s/c1=C\C(=O)C(C)(C)C ): 37.9 µM (active)

Recorded Potency (compound COc1cccc(CNC(=O)COc2cc3c(c4oc(=O)cc(C)c24)CCC(C)(C)O3)c1 ): inactive

---
Recorded Potency (compound COc1ccc(-c2cc(=O)oc3c(O)c(O)ccc23)cc1 ): 8.49 µM (active)

Recorded Potency (compound O=C1CC2(CCCCC2)Oc2ccc(F)cc21 ): inactive

Recorded Potency (compound Brc1ccc(N/N=C(/N=Nc2nn[nH]n2)c2ccccc2)cc1 ): 33.8 µM (active)

Recorded Potency (compound COc1ccc(S(=O)(=O)/N=C2\C=C(NS(=O)(=O)c3ccccc3)C(=O)c3ccccc32)cc1 ): 8.49 µM (active)

Recorded Potency (compound CC1CN(c2nc3ccccc3nc2C(C#N)C(=O)NCc2ccc3c(c2)OCO3)CC(C)O1 (stereo unspecified) ): inactive

Recorded Potency (compound COc1cccc2c1C(=O)c1c(O)c3c(c(O)c1C2=O)CC(O)(C(=O)CO)CC3OC1CC(N(C)C)C(O)C(C)O1 (stereo unspecified) ): inactive

Recorded Potency (compound O=C(NN1C(=O)/C(=C\c2ccc(O)c([N+](=O)[O-])c2)SC1=S)c1ccccc1Cl ): 50.1 µM (active)

Recorded Potency (compound O=S1(=O)[C@H]2CC3O[C@]2(C[C@@H]3c2ccc(F)cc2)CN1Cc1ccc(Cl)cc1 ): inactive
